- Measurement Target: LasB elastase activity in dialysed supernatant from P. aeruginosa strain PA01 (Pseudomonas aeruginosa)
- Construct: uses as source of enzyme dialysed supernatant from P. aeruginosa; endogenous in cells; host or cells: P. aeruginosa strain PA01 culture supernatant, filtered and dialysed
- Sequence (P14756 198-498): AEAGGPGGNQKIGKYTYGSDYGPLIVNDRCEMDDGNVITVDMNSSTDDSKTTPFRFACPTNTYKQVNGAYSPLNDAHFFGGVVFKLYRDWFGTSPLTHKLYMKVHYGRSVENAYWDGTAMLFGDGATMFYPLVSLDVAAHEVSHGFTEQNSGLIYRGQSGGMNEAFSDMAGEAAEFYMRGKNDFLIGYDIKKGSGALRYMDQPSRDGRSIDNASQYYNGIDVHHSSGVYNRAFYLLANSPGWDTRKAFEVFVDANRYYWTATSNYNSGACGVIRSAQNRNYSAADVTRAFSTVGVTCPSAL
- Method: Elastin Congo Red assay to determine % inhibition (Assay 1)
- Type: biochemical
- Condition Label: read-out: Elastin hydrolysis % inhibition @ 50/25 μM inhibitor concentration Assay 1
Each entry below carries its reported inhibition at 50 µM.
Measurement Label: inhibition at 50 µM

compound="Cc1ccc2c(c1)CC(CNC(=O)C1(CC(=O)O)Cc3ccccc3C1)O2 (centres unmarked)" measurement_label="inhibition at 50 µM" result="> 60%"
compound=COc1ccc2sc(CNC(=O)C3(CC(=O)O)Cc4ccccc4C3)nc2c1 measurement_label="inhibition at 50 µM" result="> 60%"
compound=CN1CCC(OC(=O)[C@H](Cc2c[nH]c3ccccc23)NC(=O)C2(CC(=O)O)Cc3ccccc3C2)CC1 measurement_label="inhibition at 50 µM" result="> 60%"
compound=CN1CCc2nc(CNC(=O)C3(CC(=O)O)Cc4ccccc4C3)sc2C1 measurement_label="inhibition at 50 µM" result="30 to 60%"
compound=O=C(O)CC1(C(=O)NCc2cc3cc(Br)ccc3o2)Cc2ccccc2C1 measurement_label="inhibition at 50 µM" result="> 60%"
compound=O=C(O)CC1(C(=O)N[C@H](CO)Cc2c[nH]c3ccccc23)Cc2ccccc2C1 measurement_label="inhibition at 50 µM" result="30 to 60%"
compound=CN(C)CCc1ccc2nc(CNC(=O)C3(CC(=O)O)Cc4ccccc4C3)sc2c1 measurement_label="inhibition at 50 µM" result="30 to 60%"
compound=Cc1c(CNC(=O)C2(CC(=O)O)Cc3ccccc3C2)oc2ccccc12 measurement_label="inhibition at 50 µM" result="30 to 60%"
compound=CN(C)CC#Cc1ccc2nc(CNC(=O)C3(CC(=O)O)Cc4ccccc4C3)sc2c1 measurement_label="inhibition at 50 µM" result="> 60%"
compound=C[N+](C)(C)C1CN(c2ccc3sc(CNC(=O)C4(CC(=O)[O-])Cc5ccccc5C4)nc3c2)C1 measurement_label="inhibition at 50 µM" result="> 60%"
compound=NC1CN(c2ccc3nc(CNC(=O)C4(CC(=O)O)Cc5ccccc5C4)sc3c2)C1 measurement_label="inhibition at 50 µM" result="> 60%"
compound=O=C(O)CC1(C(=O)NCCc2c[nH]c3ccccc23)Cc2ccccc2C1 measurement_label="inhibition at 50 µM" result="30 to 60%"
compound=O=C(O)CC1(C(=O)N[C@@H](Cc2ccc(O)cc2)C(=O)O)Cc2ccccc2C1 measurement_label="inhibition at 50 µM" result="> 60%"
compound=NCC1CN(c2ccc3nc(CNC(=O)C4(CC(=O)O)Cc5ccccc5C4)sc3c2)C1 measurement_label="inhibition at 50 µM" result="> 60%"
compound=O=C(O)CC1(C(=O)NCc2nc3c(N4CCOCC4)cccc3s2)Cc2ccccc2C1 measurement_label="inhibition at 50 µM" result="> 60%"
compound=O=C(O)CC1(C(=O)NCCc2cc3ccccc3s2)Cc2ccccc2C1 measurement_label="inhibition at 50 µM" result="15 to 30%"
compound=O=C(O)CC1(C(=O)NCCc2nc3ccccc3s2)Cc2ccccc2C1 measurement_label="inhibition at 50 µM" result="15 to 30%"

###

- Measurement Target: LasB elastase activity in dialysed supernatant from P. aeruginosa strain PA01 (Pseudomonas aeruginosa)
- Construct: uses as source of enzyme dialysed supernatant from P. aeruginosa; endogenous in cells; host or cells: P. aeruginosa strain PA01 culture supernatant, filtered and dialysed
- Method: Elastin Congo Red assay to determine % inhibition (Assay 1)
- Type: biochemical
- Condition Label: read-out: Elastin hydrolysis % inhibition @ 50/25 μM inhibitor concentration Assay 1
Each item that follows carries a reported inhibition at 50 µM.
Measurement Label: inhibition at 50 µM

mol_smiles=CN1CCN(c2ccc3nc(CNC(=O)C4(CC(=O)O)Cc5ccccc5C4)sc3c2)CC1 result="> 60%"
mol_smiles=C[N+](C)(C)CCOc1ccc2sc(CNC(=O)C3(CC(=O)[O-])Cc4ccccc4C3)nc2c1 result="> 60%"
mol_smiles=CN(C)CCCc1ccc2nc(CNC(=O)C3(CC(=O)O)Cc4ccccc4C3)sc2c1 result="> 60%"
mol_smiles=Cc1nnc([C@H](Cc2c[nH]c3ccccc23)NC(=O)C2(CC(=O)O)Cc3ccccc3C2)o1 result="> 60%"
mol_smiles=NC/C=C/c1ccc2nc(CNC(=O)C3(CC(=O)O)Cc4ccccc4C3)sc2c1 result="> 60%"
mol_smiles=C[N+](C)(C)CCc1ccc2nc(CNC(=O)C3(CC(=O)[O-])Cc4ccccc4C3)sc2c1 result="30 to 60%"
mol_smiles=O=C(O)CC1(C(=O)NCCc2cc3ccccc3[nH]2)Cc2ccccc2C1 result="15 to 30%"
mol_smiles=O=C(O)CC1(C(=O)NCc2ccc3ccccc3n2)Cc2ccccc2C1 result="> 60%"

###

- Measurement Target: purified LasB protein from P. aeruginosa (Pseudomonas aeruginosa, UniProt P14756)
- Construct: purchased Merck or Charles River Laboratories
- Method: Fluorometric assay to determine Ki (Assay 1)
- Format: biochemical
- Condition Label: Ki (μM) Assay 1, purified LasB, substrate Abz-Ala-Gly-Leu-Ala-p-Nitro-Benzyl-Amide 250 μM, Ki calculated from IC50; inhibitor 0.006 to 200 μM
Ki values, listed per item
Measurement Label: Ki

mol_smiles=CN(C)CCOc1ccc2sc(CNC(=O)C3(CC(=O)O)Cc4ccccc4C3)nc2c1 result="< 0.3 µM"
mol_smiles=CN(C)CCNc1ccc2nc(CNC(=O)C3(CC(=O)O)Cc4ccccc4C3)sc2c1 result="0.3 to 2 µM"
mol_smiles=CN(C)C1CN(c2ccc3sc(CNC(=O)C4(CC(=O)O)Cc5ccccc5C4)nc3c2)C1 result="< 0.3 µM"
mol_smiles=Cn1c(CNC(=O)C2(CC(=O)O)Cc3ccccc3C2)nc2ccccc21 result="0.3 to 2 µM"

###

Reported inhibition at 50 µM values follow for various compounds
- Measurement Target: LasB elastase activity in dialysed supernatant from P. aeruginosa strain PA01 (Pseudomonas aeruginosa)
- Construct: uses as source of enzyme dialysed supernatant from P. aeruginosa; endogenous in cells; host or cells: P. aeruginosa strain PA01 culture supernatant, filtered and dialysed
- Method: Elastin Congo Red assay to determine % inhibition (Assay 1)
- Format: biochemical
- Condition Label: read-out: Elastin hydrolysis % inhibition @ 50/25 μM inhibitor concentration Assay 1
Measurement Label: inhibition at 50 µM

compound="O=C(O)CC1(C(=O)NC2CCN(c3cccc(Cl)c3)C2)Cc2ccccc2C1 (centres unmarked)" result="> 60%"
compound=NC(=O)[C@H](Cc1c[nH]c2ccccc12)NC(=O)C1(CC(=O)O)Cc2ccccc2C1 result="> 60%"
compound=C[N+](C)(C)CCNC(=O)[C@H](Cc1c[nH]c2ccccc12)NC(=O)C1(CC(=O)O)Cc2ccccc2C1 result="30 to 60%"
compound=Cn1cc(CNC(=O)C2(CC(=O)O)Cc3ccccc3C2)cn1 result="30 to 60%"
compound=NCCNc1ccc2sc(CNC(=O)C3(CC(=O)O)Cc4ccccc4C3)nc2c1 result="> 60%"
compound=CN1CC2(C1)CN(c1ccc3nc(CNC(=O)C4(CC(=O)O)Cc5ccccc5C4)sc3c1)C2 result="> 60%"
compound=O=C(O)CC1(C(=O)NCc2nc3ccccc3s2)Cc2ccccc2C1 result="> 60%"
compound=CN(C)C[C@H]1C[C@H](c2ccc3nc(CNC(=O)C4(CC(=O)O)Cc5ccccc5C4)sc3c2)C1 result="> 60%"

###

- Measurement Target: purified LasB protein from P. aeruginosa (Pseudomonas aeruginosa, UniProt P14756)
- Construct: purchased Merck or Charles River Laboratories
- Method: Fluorometric assay to determine Ki (Assay 1)
- Assay type: biochemical
- Condition Label: Ki (μM) Assay 1, purified LasB, substrate Abz-Ala-Gly-Leu-Ala-p-Nitro-Benzyl-Amide 250 μM, Ki calculated from IC50; inhibitor 0.006 to 200 μM
- Method: Experiments were therefore conducted (1) to measure the potency of inhibition of compounds of the invention against purified Pseudomonas aeruginosa LasB enzyme and also experiments were conducted (2) to measure the ability of compounds of the invention to inhibit LasB-catalysed elastin degradation. The first assay uses a commercial fluorescent synthetic peptide and purified LasB enzyme. […]
Measurement Label: Ki

compound="CN(C)Cc1ccc2sc(CNC(=O)C3(CC(=O)O)Cc4ccccc4C3)nc2c1 [Example 84]" result="0.3 to 2 µM"
compound="CC(C)(C)OC(=O)[C@H](Cc1c[nH]c2ccccc12)NC(=O)C1(CC(=O)O)Cc2ccccc2C1 [Example 47]" result="< 0.3 µM"
compound="CC(NC(=O)C1(CC(=O)O)Cc2ccccc2C1)c1cc2ccccc2o1 (single isomer, unassigned) [Example 58]" result="2 to 10 µM"
compound="CN(C)CCc1ccc2sc(CNC(=O)C3(CC(=O)O)Cc4ccccc4C3)nc2c1 [Example 97]" result="0.3 to 2 µM"

The origin of these recorded values is patent US11000511B2.
